Kindly supply the reported Vd values for the records listed here.
test: Volume of distribution at steady state in Han Wistar rat at 2 umol/kg, po and 1 umol/kg, iv; type: ADME, organism-based; conditions: in vivo, dose 1 µmol/kg, read-out: Vdss
Give bare numbers, in L/kg.

Would you please look over these solved cases?
CNC(=O)c1nn(C)c2ccc(Nc3nccc(-n4cc(N[C@@H]5CCOC[C@@H]5N)c(C)n4)n3)cc12 : 5.4
CNC(=O)c1nn(C)c2ccc(Nc3nccc(-n4cc(N[C@@H]5CCNC5)c(C)n4)n3)cc12 : 13
CNC(=O)c1nn(C)c2ccc(Nc3nccc(-n4cc(N[C@@H]5CCCNC5)c(C)n4)n3)cc12 : 19
CNC(=O)c1nn(C)c2ccc(Nc3nccc(-n4cc(NCC5(N)CC5)c(C)n4)n3)cc12 : 1.3

Please examine the following record next.
Specify measured Vd for `CNC(=O)c1nn(C)c2ccc(Nc3nccc(-n4cc(N[C@@H]5CCOC[C@@H]5N)cn4)n3)cc12` .
9.8

* * *

assay: Protein binding in Beagle dog plasma assessed as unbound fraction; format: ADME, cell-free, Canis lupus familiaris
Measure Name: fraction unbound
Answers are plain numbers.

Supply fraction unbound value. Item: `CNC(=O)c1nn(C)c2ccc(Nc3nccc(-n4cc(N[C@@H]5CCOC[C@@H]5N)cn4)n3)cc12`
0.27

* * *

target: Tyrosine-protein kinase SYK (Homo sapiens, UniProt P43405); experiment: Inhibition of SYK (unknown origin)
Measure Name: pIC50
Answers are plain numbers, as −log10 of the molar value.

CNC(=O)c1nn(C)c2ccc(Nc3nccc(-n4cc(N[C@@H]5CCCNC5)c(C)n4)n3)cc12 : 9.14
CNC(=O)c1nn(C)c2ccc(Nc3nccc(-n4cc(N[C@@H]5CCOC[C@@H]5N)cn4)n3)cc12 : 9.48
CNC(=O)c1nn(C)c2ccc(Nc3nccc(-n4cc(NCC5(N)CC5)c(C)n4)n3)cc12 : 9.47
CNC(=O)c1nc(C)n2ccc(Nc3nccc(-n4cc(NCCN)cn4)n3)cc12 : 9.64
CNC(=O)c1nc(C)n2ccc(Nc3nccc(-n4cc(N[C@@H]5CCOC[C@@H]5N)c(C)n4)n3)cc12 : 8.49

Consider the following items and state reported pIC50 for each.
1. CNC(=O)c1nn(C)c2ccc(Nc3nccc(-n4cc(N[C@@H]5CCNC5)c(C)n4)n3)cc12
2. Cc1nnc(-c2nn(C)c3ccc(Nc4nccc(-n5cc(N[C@@H]6CCOC[C@@H]6N)c(C)n5)n4)cc23)o1
3. CNC(=O)c1nn(C)c2ccc(Nc3nccc(-n4cc(O[C@@H]5CCNC5)c(C)n4)n3)cc12
4. CNC(=O)c1nn(C)c2ccc(Nc3nccc(-n4cc(O[C@H]5CNC[C@H]5F)c(C)n4)n3)cc12

9.22
9.70
9.29
9.40

* * *

assay: Lipophilicity, logD of compound in buffer:octanol (100:1) at pH 7.4 by shake flask method; type: physicochemical
Response field class: string, computed from recorded logD by ranges low = under 1, mid = from 1 up to 2, high = 2 and over

Below, 7 molecules whose answers are already recorded.
CNC(=O)c1nc(C)n2ccc(Nc3nccc(-n4cc(CN(C)C)cn4)n3)cc12 : mid
CNC(=O)c1nn(C)c2ccc(Nc3nccc(-n4cc(NCC5(N)CC5)c(C)n4)n3)cc12 : high
Cc1nnc(-c2nn(C)c3ccc(Nc4nccc(-n5cc(N[C@@H]6CCOC[C@@H]6N)c(C)n5)n4)cc23)o1 : high
CNC(=O)c1nc(C)n2ccc(Nc3nccc(-n4cc(OCCN)cn4)n3)cc12 : low
Cc1nn(-c2ccnc(Nc3ccc4c(c3)c(C(=O)C(F)(F)F)cn4C)n2)cc1N[C@@H]1CCOC[C@@H]1N : high
CNC(=O)c1nn(C)c2ccc(Nc3nccc(-n4cc(O[C@@H]5CCNC5)c(C)n4)n3)cc12 : mid
CNC(=O)c1nc(C)n2ccc(Nc3nccc(-n4cc(N[C@@H]5CCOC[C@@H]5N)c(C)n4)n3)cc12 : mid

// switching to the query molecule
Category lookup for the molecule `CNC(=O)c1nn(C)c2ccc(Nc3nccc(-n4cc(NC5CNC5)c(C)n4)n3)cc12`
low
